Data provenance: ChEMBL document CHEMBL1201862

System: TK-10
assayDetails: NCI tumour cell line growth inhibition, 48 h
The source made the active and inactive calls. No stated cut-off is given here; in the data, active = GI50 up to about 1.1 µM and inactive = higher.
Pick one and only one: active, inactive

Completed entries (count: 3):
INSERT INTO measurements (molecule, system, classlabel) VALUES
  ('O=C1N[C@H]2c3c(Cl)sc(Cl)c3C(=O)[C@H]2O1', 'TK-10', 'inactive'),
  ('O=[N+]([O-])c1ccc(C[P+]2(c3ccccc3)CCCCC2)cc1.[O-][Cl+3]([O-])([O-])[O-]', 'TK-10', 'inactive'),
  ('C=CCNC1=C2C[C@@H](C)C[C@@H](OC)[C@H](OC(=O)CN)[C@H](C)/C=C(\C)[C@@H](OC(N)=O)[C@H](OC)/C=C\C=C(/C)C(=O)NC(=CC1=O)C2=O', 'TK-10', 'active');

Any idea what this test logged for COc1ccc(Oc2nc3cc(C(F)(F)F)ccc3nc2C(C)C)cc1 ? inactive

Hello, I am checking results. What call was entered for NC1=NN(c2ccccc2)C(=O)C1/C(=N\NC(=O)c1cc2ccccc2cc1O)C(=O)Nc1cccc(C(F)(F)F)c1 (centres undefined) ? inactive

Give the logged outcome of this assay for the following molecule: CS(=O)(=O)Nc1ccc(Nc2c3ccccc3nc3ccccc23)cc1 inactive

Which outcome was assigned to CS(=O)(=O)c1nc(-c2cc3c(c(S(C)(=O)=O)n2)CCCC3)cc2c1CCCC2 in this test? inactive

Could you please tell me the result logged for CC1=C(C(=O)Nc2cc(F)c(F)cc2F)C(c2cccc([N+](=O)[O-])c2)C(C(=O)Nc2ccccc2C(F)(F)F)=C(C)N1 (centres undefined) in this assay? inactive

In this assay, the call recorded for C=C1c2nc3ccccc3n2C=C(c2ccccc2)N1c1ccc(C)cc1 was what? inactive

Returns: the outcome recorded for NC(CCC(=O)NC(CSCC1C(=O)Nc2ccccc21)C(=O)NCC(=O)O)C(=O)O (centres undefined) in this assay. inactive

Returns: the outcome recorded for Cc1ccc(N2C(=O)/C(=C3\SC(C(N)=O)=C(N)N3c3ccccc3)SC2=S)cc1 in this assay. inactive
